These measurements were taken from PubChem BioAssay (NCATS).

- experimental.target: Aldehyde dehydrogenase, mitochondrial (Homo sapiens) (UniProt P05091)
- test.protocol: qHTS for Inhibitors of the Aldehyde Dehydrogenase Family (ALDH2) Primary screen (AID 2061308);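 further: plate controls were vehicle for no effect and reference inhibitor for full effect; nearly all actives have a fitted effect of over 55% in size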
- test.parameters: ALDH2 enzyme inhibition qHTS, 1536-well; series mostly up to 56 µM
Records with an inconclusive call do not appear. Activity calls are given as the source filed them. The call rests on the fitted dose curve; in most records, active means well fitted inhibition curve with a large enough effect; inconclusive means small, poorly fitted or top-dose-only effect; inactive means flat fitted curve, though single readings scatter.

compound: COc1cc(C(=O)O[C@H]2[C@@H]3C=CO[C@@H](O[C@@H]4O[C@H](CO)[C@@H](O)[C@H](O)[C@H]4O)[C@@H]3[C@@]3(CO)O[C@@H]23)ccc1O
activity change, negative = inhibition: inactive
//
compound: COc1ccc2[nH]c(-c3ccccc3)c(CCN(C)C)c2c1
activity change, negative = inhibition: inactive
//
compound: C[C@]12CC[C@@H](O[C@@H]3O[C@H](CO)[C@@H](O)[C@H](O)[C@H]3O)C[C@@]1(O)CCC1C2CC[C@]2(C)[C@@H](C3=CC(=O)OC3)CC[C@]12O (some centres undefined)
activity change, negative = inhibition: inactive
//
compound: COC(=O)C12C(=O)C(C)(O)C(=O)C1(C)C(C)=CC1C34CCC(OC3=O)C(C)(C)C4CCC12C (centres undefined)
activity change, negative = inhibition: inactive
//
compound: CC(C)(C)c1cc(C(C)(C)C)c2c(c1)C(O)(C(F)(F)F)C(=O)O2 (centres undefined)
activity change, negative = inhibition: inactive
//
compound: Cc1cc(-c2nnc3n2CCCCC3)c(C)n1-c1cccnc1
activity change, negative = inhibition: inactive
//
compound: C[C@@H]1[C@H](O)[C@@H](C)/C=C/C=C/CC/C=C/C=C/C=C/C=C/[C@H](O[C@H]2O[C@@H](C)[C@H](O)[C@@H](N)[C@H]2O)C[C@@H]2O[C@](O)(C[C@@H](O)[C@H](O)CC[C@@H](O)C[C@@H](O)C[C@@H](O)CC(=O)O[C@H]1C)C[C@H](O)[C@H]2C(=O)O
activity change, negative = inhibition: inactive
//
compound: CC(C)[C@]12O[C@H]1[C@@H]1O[C@]13[C@]1(O[C@H]1C[C@H]1C4=C(CC[C@@]13C)C(=O)OC4)[C@@H]2O
activity change, negative = inhibition: inactive
//
compound: CCCCOC(=O)c1ccnc2cc(C(OCCN3CCCCC3)c3ccccc3Cl)sc12 (centres undefined)
activity change, negative = inhibition: inactive
//
compound: CN1C(=O)N(c2ccc(C#N)c(C(F)(F)F)c2)C(=O)[C@@]1(CO)c1ccccc1
activity change, negative = inhibition: inactive
//
compound: C/C=C(\C)C(=O)OC1CC2C(CC=C3CC(OC4CC(OC)C(OC5CC(OC)C(OC6OC(C)C(OC7OC(CO)C(O)C(O)C7O)C(OC)C6O)C(C)O5)C(C)O4)CCC32C)C2(O)CCC(C(C)=O)C12C (centres undefined)
activity change, negative = inhibition: inactive
//
compound: CCc1nn2c(=O)c(F)c(N3CCNCC3)nc2s1
activity change, negative = inhibition: inactive
//
compound: C[C@H]1O[C@@H](O[C@H]2C[C@@H](O)[C@]3(CO)C4C(CC[C@]3(O)C2)[C@@]2(O)CC[C@H](C3=CC(=O)OC3)[C@@]2(C)C[C@H]4O)[C@@H](O)[C@@H](O)[C@H]1O (some centres undefined)
activity change, negative = inhibition: inactive
//
compound: Nc1ncnc2c1ncn2[C@@H]1O[C@@H]2COP(O)(=S)O[C@H]2[C@H]1O (some centres undefined)
activity change, negative = inhibition: 4.01% [at 11.2 µM] (inactive)
